tested on: 953936-095-R-J2-PDC spheroids with HUVEC/MSC, viability; experiment: Anticancer human tumor 953936-095-R-J2-PDC patient-derived cervical squamous cell carcinoma cell line growth inhibition [PI3K]; conditions: curve of first compound; second compound 1 µM
pIC50: −log10 of the molar value.
measuredParameter: pIC50

Fill in: pIC50 of CC(Cn1ccc(-c2ccc(C#N)c(Cl)c2)n1)NC(=O)c1cc(C(C)O)[nH]n1 (stereo not drawn) + COc1c(OCCCN2CCOCC2)ccc2c3n(c(=NC(=O)c4cnc(N)nc4)nc12)CCN3 is ___
> 7.50

Endpoint output: pIC50 of CCCS(=O)(=O)Nc1ccc(F)c(C(=O)c2c[nH]c3ncc(-c4ccc(Cl)cc4)cc23)c1F + Cc1nc(NC(=O)N2CCCC2C(N)=O)sc1-c1ccnc(C(C)(C)C(F)(F)F)c1 . Value?
> 7.50

Query: pIC50; subject: CNC(=O)c1ccc(N2C(=S)N(c3ccc(C#N)c(C(F)(F)F)c3)C(=O)C2(C)C)cc1F + CC(Nc1ccc2c(c1)OCCn1cc(N3C(=O)OCC3C(F)F)nc1-2)C(N)=O
> 7.50

Consider the compound CC(Cn1ccc(-c2ccc(C#N)c(Cl)c2)n1)NC(=O)c1cc(C(C)O)[nH]n1 (stereo not drawn) + CC(Nc1ncnc2nc[nH]c12)c1cc2cccc(Cl)c2c(=O)n1-c1ccccc1 and give its measured pIC50.
< 5.00

Sample Cn1ncnc1[C@H]1c2n[nH]c(=O)c3cc(F)cc(c23)N[C@@H]1c1ccc(F)cc1 + Cc1nc(NC(=O)N2CCCC2C(N)=O)sc1-c1ccnc(C(C)(C)C(F)(F)F)c1 — what was its pIC50?
> 9.50

Using the record for CC(Cn1ccc(-c2ccc(C#N)c(Cl)c2)n1)NC(=O)c1cc(C(C)O)[nH]n1 (stereo not drawn) + Cc1nc(NC(=O)N2CCCC2C(N)=O)sc1-c1ccnc(C(C)(C)C(F)(F)F)c1 , report its pIC50.
> 7.50

Quick check: pIC50 of CC1(C)CCC(CN2CCN(c3ccc(C(=O)NS(=O)(=O)c4ccc(NCC5CCOCC5)c([N+](=O)[O-])c4)c(Oc4cnc5[nH]ccc5c4)c3)CC2)=C(c2ccc(Cl)cc2)C1 + Cc1nc(NC(=O)N2CCCC2C(N)=O)sc1-c1ccnc(C(C)(C)C(F)(F)F)c1 ?
> 7.50

Look up pIC50 for this compound: CC(C)n1nc(-c2ccc3oc(N)nc3c2)c2c(N)ncnc21 + Cc1nc(NC(=O)N2CCCC2C(N)=O)sc1-c1ccnc(C(C)(C)C(F)(F)F)c1
> 9.50

====

Give viability, T/C for every item shown.
Tested on: 953936-095-R-J2-PDC spheroids with HUVEC/MSC, viability
Experiment: Anticancer human tumor 953936-095-R-J2-PDC cell line growth inhibition [PI3K];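 note: spheroids exposed to compounds for seven days before read-out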
Conditions: second compound 10 µM; first compound 1 µM; stronger effect = lower value
Text: Combinatorial screen of targeted agents with the PI3K inhibitors inavolisib, alpelisib, duvelisib, and copanlisib in multi-cell type tumor spheroids A high-throughput screen of multi-cell type tumor spheroids was designed to identify active combinations of targeted small molecules and PI3K pathway inhibitors. […] Compounds. […] If the clinical Cmax for an agent had not been determined, the highest concentration tested was 10 microM. […]
Numbers only here, please. The scale is %.

Return reported viability, T/C; argument: C=CC(=O)N1CCN(c2nc(=O)n(-c3c(C)ccnc3C(C)C)c3nc(-c4c(O)cccc4F)c(F)cc23)C(C)C1 (stereo not drawn) + CC(Nc1ncnc2nc[nH]c12)c1cc2cccc(Cl)c2c(=O)n1-c1ccccc1
82.6

I am curious: what viability, T/C value has been reported for C=CC(=O)N1CCN(c2nc(=O)n(-c3c(C)ccnc3C(C)C)c3nc(-c4c(O)cccc4F)c(F)cc23)C(C)C1 (stereo not drawn) + Cc1nc(NC(=O)N2CCCC2C(N)=O)sc1-c1ccnc(C(C)(C)C(F)(F)F)c1 ?
11.9

Would you kindly share the measured viability, T/C for CNC(=O)c1ccc(N2C(=S)N(c3ccc(C#N)c(C(F)(F)F)c3)C(=O)C2(C)C)cc1F + CC(Nc1ncnc2nc[nH]c12)c1cc2cccc(Cl)c2c(=O)n1-c1ccccc1 ?
58.7

Query (molecule): C[C@@H](NC(=O)c1ncnc(N)c1Cl)c1ncc(C(=O)Nc2cc(C(F)(F)F)c(Cl)cn2)s1 + Cc1nc(NC(=O)N2CCCC2C(N)=O)sc1-c1ccnc(C(C)(C)C(F)(F)F)c1 ; field requested: viability, T/C
17

Name the recorded viability, T/C for CC(Cn1ccc(-c2ccc(C#N)c(Cl)c2)n1)NC(=O)c1cc(C(C)O)[nH]n1 (stereo not drawn) + Cc1nc(NC(=O)N2CCCC2C(N)=O)sc1-c1ccnc(C(C)(C)C(F)(F)F)c1 .
11.1

Requested field: viability, T/C. Item: CCN1CCN(Cc2ccc(Nc3ncc(F)c(-c4cc(F)c5nc(C)n(C(C)C)c5c4)n3)nc2)CC1 + CC(Nc1ncnc2nc[nH]c12)c1cc2cccc(Cl)c2c(=O)n1-c1ccccc1
49.8

Look up viability, T/C: C#Cc1c(F)ccc2cc(O)cc(-c3ncc4c(N5CC6CCC(C5)N6)nc(OCC56CCCN5CC(F)C6)nc4c3F)c12 (stereo not drawn) + Cc1nc(NC(=O)N2CCCC2C(N)=O)sc1-c1ccnc(C(C)(C)C(F)(F)F)c1
7.39

May I ask what viability, T/C has been recorded for Cn1ncc(Cl)c1-c1cc(C(=O)NC(CN)Cc2cccc(F)c2)sc1Cl (stereo not drawn) + Cc1nc(NC(=O)N2CCCC2C(N)=O)sc1-c1ccnc(C(C)(C)C(F)(F)F)c1 ?
8.02

====

tested on: 953936-095-R-J2-PDC spheroids with HUVEC/MSC, viability; experiment: Anticancer human tumor 953936-095-R-J2-PDC cell line growth inhibition [PI3K]; conditions: curve of first compound; second compound 0.1 µM;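 note: spheroids exposed to compounds for seven days before read-out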
pIC50: −log10 of the molar value.
Kindly supply the reported pIC50 values for the records listed here.

Value lookup for pIC50; key = C=CC(=O)N1CCN(c2nc(=O)n(-c3c(C)ccnc3C(C)C)c3nc(-c4c(O)cccc4F)c(F)cc23)C(C)C1 (stereo not drawn) + CC(Nc1ncnc2nc[nH]c12)c1cc2cccc(Cl)c2c(=O)n1-c1ccccc1
< 5.00

Suppose we examine the compound CC(Cn1ccc(-c2ccc(C#N)c(Cl)c2)n1)NC(=O)c1cc(C(C)O)[nH]n1 (stereo not drawn) + CC(Nc1ncnc2nc[nH]c12)c1cc2cccc(Cl)c2c(=O)n1-c1ccccc1 ; what pIC50 value has been reported?
< 5.00

Item C#Cc1c(F)ccc2cc(O)cc(-c3ncc4c(N5CC6CCC(C5)N6)nc(OCC56CCCN5CC(F)C6)nc4c3F)c12 (stereo not drawn) + COc1c(OCCCN2CCOCC2)ccc2c3n(c(=NC(=O)c4cnc(N)nc4)nc12)CCN3 has what recorded pIC50?
> 7.50

====

system: 953936-095-R-J2-PDC spheroids with HUVEC/MSC, viability; assay: Anticancer human tumor 953936-095-R-J2-PDC cell line growth inhibition [PI3K]; conditions: second compound 0.1 µM; first compound 0.1 µM; stronger effect = lower value;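 note: spheroids exposed to compounds for seven days before read-out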
measuredParameter: viability, T/C

Suppose we examine the compound CC(C)n1nc(-c2ccc3oc(N)nc3c2)c2c(N)ncnc21 + Cc1nc(NC(=O)N2CCCC2C(N)=O)sc1-c1ccnc(C(C)(C)C(F)(F)F)c1 ; what viability, T/C value has been reported?
15.2%

Recorded viability, T/C of CCN1CCN(Cc2ccc(Nc3ncc(F)c(-c4cc(F)c5nc(C)n(C(C)C)c5c4)n3)nc2)CC1 + COc1c(OCCCN2CCOCC2)ccc2c3n(c(=NC(=O)c4cnc(N)nc4)nc12)CCN3 , please.
13.8%

I am curious: what viability, T/C value has been reported for CC1(C)CCC(Nc2ncc(C(F)(F)F)c(-c3c[nH]c4c(P(C)(C)=O)c(C#N)ccc34)n2)CN1 (stereo not drawn) + CC(Nc1ncnc2nc[nH]c12)c1cc2cccc(Cl)c2c(=O)n1-c1ccccc1 ?
53.5%

====

system: 953936-095-R-J2-PDC spheroids with HUVEC/MSC, viability; assay: Anticancer human tumor 953936-095-R-J2-PDC cell line growth inhibition [PI3K]; conditions: second compound 0.0316 µM; first compound 0.03 µM; stronger effect = lower value;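 note: spheroids exposed to compounds for seven days before read-out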
For each of the compounds below, state its viability, T/C.
Use % as the unit, but write only the number.

I am curious: what viability, T/C value has been reported for Cn1cnc2c(F)c(Nc3ccc(Br)cc3Cl)c(C(=O)NOCCO)cc21 + Cc1nc(NC(=O)N2CCCC2C(N)=O)sc1-c1ccnc(C(C)(C)C(F)(F)F)c1 ?
87.1

Please look up its viability, T/C: Cn1cnc2c(F)c(Nc3ccc(Br)cc3Cl)c(C(=O)NOCCO)cc21 + COc1c(OCCCN2CCOCC2)ccc2c3n(c(=NC(=O)c4cnc(N)nc4)nc12)CCN3
33.1

I am curious: what viability, T/C value has been reported for Cn1cnc2c(F)c(Nc3ccc(Br)cc3Cl)c(C(=O)NOCCO)cc21 + CC(Nc1ncnc2nc[nH]c12)c1cc2cccc(Cl)c2c(=O)n1-c1ccccc1 ?
78.9
